Entry source: ChEMBL document CHEMBL4011590

Tested on: CHO-K1
Assay: Cytotoxicity against CHOK1 cells after 24 hrs by MTT assay
Format: cell-based
Settings: Cricetulus griseus, CHO-K1, 24 h
Endpoint: log10 of IC50 (log10 of the value in µM)

{"columns": ["Molecule Smiles", "log10 of IC50"],
 "data": [
  ["O=[N+]([O-])c1cc(-c2nnn(CSc3nnnn3C3CCCCC3)n2)cc([N+](=O)[O-])c1", 2.15],
  ["Cc1ccc(Cn2nnc(-c3cc([N+](=O)[O-])cc([N+](=O)[O-])c3)n2)cc1", 2.30],
  ["O=[N+]([O-])c1cc(-c2nnn(Cc3cccc(F)c3)n2)cc([N+](=O)[O-])c1", 2.50],
  ["O=[N+]([O-])c1cc(-c2nnn(CSc3nnnn3-c3ccc(Cl)c(Cl)c3)n2)cc([N+](=O)[O-])c1", 0.94],
  ["O=[N+]([O-])c1cc(-c2nnn(Cc3ccc(Cl)c(Cl)c3)n2)cc([N+](=O)[O-])c1", 1.57],
  ["O=[N+]([O-])c1cc(-c2nnn(Cc3ccc(Cl)cc3)n2)cc([N+](=O)[O-])c1", 2.23],
  ["Cc1ccc(Cn2nnnc2-c2cc([N+](=O)[O-])cc([N+](=O)[O-])c2)cc1", 1.45],
  ["O=[N+]([O-])c1cc(-c2nnn(CSc3nnnn3-c3ccc(Br)cc3)n2)cc([N+](=O)[O-])c1", 1.46]
]}
